System: Human breast cancer cell line MCF7
measurement notes: Colony formation (plating efficiency) standard protocol
Assay type: cell-based
stated conditions: MCF7, MCF7, 4 hours exposure, colony formation day 15-20, read-out: ED50 (the source's name)
pEC50: −log10 of the molar value.
metric name: pEC50

> print(dat)
                                   compound                    target.or.system  metric.name  test.value
1  CCNCCCNCC1CCC1CNCCCNCC (centres unmarked) [SL-11043]  Human breast cancer cell line MCF7        pEC50        5.79
2  CCNCCCNCC1CC1CNCCCNCC (centres unmarked) [SL-11038]  Human breast cancer cell line MCF7        pEC50        5.87

###

System: A549
measurement notes: MTT assay, percent cell survival
Type: cell-based
stated conditions: Homo sapiens, A549, 144 h, six days after drug treatment, read-out: ID50(μM) A549
metric name: IC50 (µM)
Respond numerically; units are µM and should not be typed.

[ask] Form field: reported IC50 of CCNCCCNCC1CCC1CNCCCNCC (stereo not shown)
[reply] 0.3

Values compiled from patent US20110183336A1.
